# Test system: SARS-CoV-2
# METHOD: microbe, parasite or virus in culture
# Assay type: cell-based
# COND: Severe acute respiratory syndrome coronavirus 2, VeroE6/TMPRSS2, 72 h, 50% SARS-CoV-2 infected cell death inhibitory concentration; VeroE6/TMPRSS2 cells, 3 days culture, CellTiter-Glo 2.0
pEC50: −log10 of the molar value.
# pEC50 >= 6 gives fulfilled, anything below gives not fulfilled

**Q:** API: above_or_equal(metric=pEC50, cutoff=6) for item `Cc1cncc(-n2c(=O)nc(N(C)C3CCCCC3)n(Cc3cc(F)c(F)c(F)c3)c2=O)c1`
**A:** not fulfilled

**Q:** API: above_or_equal(metric=pEC50, cutoff=6) for item `Cc1cncc(-n2c(=O)nc(Nc3ccc4nn(C)cc4c3)n(Cc3cc(C#N)ccc3Cl)c2=O)c1`
**A:** fulfilled

**Q:** API: above_or_equal(metric=pEC50, cutoff=6) for item `COc1ccc(Nc2nc(=O)n(-c3cncc4ccccc34)c(=O)n2Cc2cc(F)c(F)c(C#N)c2)cc1`
**A:** fulfilled

**Q:** API: above_or_equal(metric=pEC50, cutoff=6) for item `O=c1[nH]cccc1Cn1c(=O)nc(NC2CCCCC2)n(Cc2cc(F)c(F)c(F)c2)c1=O`
**A:** not fulfilled

**Q:** API: above_or_equal(metric=pEC50, cutoff=6) for item `O=c1[nH]cccc1Cn1c(=O)nc(Nc2cccc3[nH]ccc23)n(Cc2cc(F)c(F)c(F)c2)c1=O`
**A:** not fulfilled

**Q:** API: above_or_equal(metric=pEC50, cutoff=6) for item `Cc1cncc(-n2c(=O)nc(Nc3cc4cn(CC(F)F)nc4cc3Cl)n(Cc3cc(F)c(F)c(F)c3)c2=O)c1`
**A:** fulfilled

**Q:** API: above_or_equal(metric=pEC50, cutoff=6) for item `O=c1[nH]cc(Cl)cc1Cn1c(=O)nc(Nc2cc3c(cc2Cl)OCC3)n(Cc2cc(F)c(F)c(F)c2)c1=O`
**A:** fulfilled

**Q:** API: above_or_equal(metric=pEC50, cutoff=6) for item `Cc1cncc(-n2c(=O)[nH]/c(=N\c3cc4cn(C)nc4cc3Cl)n(Cc3cc(F)c(F)c(F)c3)c2=O)c1`
**A:** fulfilled

**Q:** API: above_or_equal(metric=pEC50, cutoff=6) for item `CNc1nc2cc(F)c(Nc3nc(=O)n(-c4cncc(C)c4)c(=O)n3Cc3cc(C#N)ccc3Cl)cc2s1`
**A:** fulfilled

**Q:** API: above_or_equal(metric=pEC50, cutoff=6) for item `Cc1cncc(-n2c(=O)nc(Nc3cc4cn(C)nc4cc3Cl)n(Cc3ccc(F)c(C#N)c3)c2=O)c1`
**A:** fulfilled

**Q:** API: above_or_equal(metric=pEC50, cutoff=6) for item `Cn1cnc(Cn2c(=O)nc(Nc3cc4cn(CC(F)F)nc4cc3Cl)n(Cc3cc(F)c(F)cc3F)c2=O)n1`
**A:** fulfilled

**Q:** API: above_or_equal(metric=pEC50, cutoff=6) for item `Cc1cnc(Cn2c(=O)nc(Nc3cc4cn(C)nc4cc3Cl)n(Cc3cc(F)c(F)cc3F)c2=O)nc1`
**A:** not fulfilled

**Q:** API: above_or_equal(metric=pEC50, cutoff=6) for item `COc1cc(F)c(C#N)cc1Cn1c(Nc2cc3cn(C)nc3cc2Cl)nc(=O)n(-c2cncc(C)c2)c1=O`
**A:** fulfilled

**Q:** API: above_or_equal(metric=pEC50, cutoff=6) for item `Cc1nc2cc(C)c(Nc3nc(=O)n(-c4cncc5ccccc45)c(=O)n3Cc3ccc(F)c(C#N)c3)cc2o1`
**A:** fulfilled

**Q:** API: above_or_equal(metric=pEC50, cutoff=6) for item `COc1ccc(Nc2nc(=O)n(-c3cncc4ccccc34)c(=O)n2Cc2ccc(F)c(C#N)c2)cc1`
**A:** fulfilled

**Q:** API: above_or_equal(metric=pEC50, cutoff=6) for item `Cc1cncc(-n2c(=O)nc(Nc3ccc4nn(CC(F)(F)F)cc4c3)n(Cc3ccc(F)c(C#N)c3)c2=O)c1`
**A:** fulfilled

**Q:** API: above_or_equal(metric=pEC50, cutoff=6) for item `Cn1cc2cc(Nc3nc(=O)n(-c4cncc(Cl)c4)c(=O)n3Cc3cc(Cl)c(F)cc3F)ccc2n1`
**A:** fulfilled

**Q:** API: above_or_equal(metric=pEC50, cutoff=6) for item `Cc1cncc(-n2c(=O)nc(Nc3ccc4nn(CC(F)F)cc4c3)n(Cc3cc(F)c(F)c(C#N)c3)c2=O)c1`
**A:** fulfilled

**Q:** API: above_or_equal(metric=pEC50, cutoff=6) for item `O=c1[nH]cccc1Cn1c(=O)nc(N2CC3(CCC3)C2)n(Cc2cc(F)c(F)c(F)c2)c1=O`
**A:** not fulfilled

**Q:** API: above_or_equal(metric=pEC50, cutoff=6) for item `Cc1cncc(-n2c(=O)nc(Nc3cc4c(cc3Cl)nc3n4CCN3)n(Cc3ccc(F)c(C#N)c3)c2=O)c1`
**A:** not fulfilled

**Q:** API: above_or_equal(metric=pEC50, cutoff=6) for item `Cn1cnc(Cn2c(=O)nc(Nc3cc4cn(C)nc4cc3Cl)n(Cc3cc(F)c(F)c(F)c3F)c2=O)n1`
**A:** fulfilled

**Q:** API: above_or_equal(metric=pEC50, cutoff=6) for item `Cn1cc2cc(Nc3nc(=O)n(-c4cncc(Cl)c4)c(=O)n3Cc3cc(C#N)c(F)cc3Cl)ccc2n1`
**A:** fulfilled

**Q:** API: above_or_equal(metric=pEC50, cutoff=6) for item `Cn1cnc(Cn2c(=O)nc(Nc3cc4c(cc3Cl)nc3n4CCN3)n(Cc3cc(Cl)c(F)cc3F)c2=O)n1`
**A:** not fulfilled

**Q:** API: above_or_equal(metric=pEC50, cutoff=6) for item `Cc1cncc(-n2c(=O)nc(Nc3cc(-c4ccc[nH]c4=O)sc3C)n(Cc3cc(F)c(F)c(F)c3)c2=O)c1`
**A:** not fulfilled

**Q:** API: above_or_equal(metric=pEC50, cutoff=6) for item `Cn1cc2cc(Nc3nc(=O)n(-c4cncc(Cl)c4)c(=O)n3Cc3cc(F)c(F)cc3F)ccc2n1`
**A:** not fulfilled

**Q:** API: above_or_equal(metric=pEC50, cutoff=6) for item `Cc1cncc(-n2c(=O)nc(N3CC4(CCOC4)C3)n(Cc3cc(F)c(F)c(F)c3)c2=O)c1`
**A:** not fulfilled

**Q:** API: above_or_equal(metric=pEC50, cutoff=6) for item `O=c1[nH]cccc1Cn1c(=O)nc(Nc2cc3cn(CCO)nc3cc2Cl)n(Cc2cc(F)c(F)c(F)c2)c1=O`
**A:** not fulfilled

src = patent US12559474B2
